assay: Oral PK study with brain and sciatic nerve exposure; format: in vivo, mice; conditions: mouse, brain and plasma, oral; @1 h; read-out: Brain/Plasma ratio
Readout label: Kp at 1 h

* O=S1(=O)CCc2ccccc2N1Cc1ccc(-c2nnc(C(F)F)o2)cn1 | 0.8

###

assay: Oral PK study with brain and sciatic nerve exposure; assay type: in vivo, mice; details: mouse, plasma; oral PK study; read-out: mean residence time
Readout label: MRT

- O=S1(=O)CCc2ccccc2N1Cc1ccc(-c2nnc(C(F)F)o2)cn1: 3.14 h

###

experiment: Oral PK study with brain and sciatic nerve exposure; format: in vivo, mice; conditions: mouse, plasma; oral PK study
Readout label: half-life (h)

• O=S1(=O)CCc2ccccc2N1Cc1ccc(-c2nnc(C(F)F)o2)cn1 [Compound 1] = 2.2

###

experiment: Oral PK study with brain and sciatic nerve exposure; type: in vivo, mice; conditions: mouse, brain and plasma, oral; @4 h; read-out: Brain/Plasma ratio
Readout label: Kp at 4 h

* O=S1(=O)CCc2ccccc2N1Cc1ccc(-c2nnc(C(F)F)o2)cn1 | 1.2

###

assay: Clearance in mouse microsomes; assay type: in vitro ADME; conditions: mouse, compared with set criteria in Schedule B, species not given
Readout label: microsomal CLint

• O=S1(=O)CCc2ccccc2N1Cc1ccc(-c2nnc(C(F)F)o2)cn1 = > 50 µL/min/mg

###

assay: Oral PK study with brain and sciatic nerve exposure; type: in vivo, mice; conditions: mouse, plasma; oral PK study
Readout label: bioavailability

* O=S1(=O)CCc2ccccc2N1Cc1ccc(-c2nnc(C(F)F)o2)cn1 [Compound 1] | 14.7%
